Assay: Antiproliferative activity against human HFL1 cells after 96 hrs by crystal violet method
Format: cell-based
Conditions: read-out: ED50
Returns: string. Value is 1 if measured GI50 at 96 h is below 60 µM, and -1 if it is greater than or equal to it.

Req: Just wondering, is GI50 at 96 h of "Oc1cc2ccccc2cc1S[C@@H]1OC[C@@H](O)[C@H](O)[C@H]1O" below 60 µM?
Resp: -1

Req: Just wondering, is GI50 at 96 h of "O[C@@H]1[C@@H](O)[C@H](Oc2ccc(S)c3ccccc23)OC[C@H]1O" below 60 µM?
Resp: -1

Req: Just wondering, is GI50 at 96 h of "CCCSc1cccc2cccc(O[C@@H]3OC[C@@H](O)[C@H](O)[C@H]3O)c12" below 60 µM?
Resp: -1

Req: Just wondering, is GI50 at 96 h of "CCCSc1ccc2ccc(O[C@@H]3OC[C@@H](O)[C@H](O)[C@H]3O)cc2c1" below 60 µM?
Resp: 1

Req: Just wondering, is GI50 at 96 h of "Oc1ccc(S[C@@H]2OC[C@@H](O)[C@H](O)[C@H]2O)c2ccccc12" below 60 µM?
Resp: -1

Req: Just wondering, is GI50 at 96 h of "CCCSc1cccc2c(O[C@@H]3OC[C@@H](O)[C@H](O)[C@H]3O)cccc12" below 60 µM?
Resp: 1

Req: Just wondering, is GI50 at 96 h of "Oc1ccc2ccc(S[C@@H]3OC[C@@H](O)[C@H](O)[C@H]3O)cc2c1" below 60 µM?
Resp: -1

Req: Just wondering, is GI50 at 96 h of "CCCSc1cc2ccccc2cc1O[C@@H]1OC[C@@H](O)[C@H](O)[C@H]1O" below 60 µM?
Resp: 1

====

Assay: Antiproliferative activity against human HFL1 cells after 96 hrs by crystal violet method
Assay type: cell-based
Settings: read-out: ED50
Test Readout: GI50 at 96 h (µM)
Give the number; µM is assumed, so skip it.

Req: Give GI50 at 96 h for "O[C@@H]1[C@@H](O)[C@H](Oc2ccc3cc(S)ccc3c2)OC[C@H]1O"
Resp: 60

Req: Give GI50 at 96 h for "Oc1cccc2c(S[C@@H]3OC[C@@H](O)[C@H](O)[C@H]3O)cccc12"
Resp: 135

Req: Give GI50 at 96 h for "CCCSc1ccc2cc(O[C@@H]3OC[C@@H](O)[C@H](O)[C@H]3O)ccc2c1"
Resp: 30

The measured values listed here are drawn from ChEMBL document CHEMBL1149583.
